assayed.system: OTU domain-containing protein 3 (Homo sapiens) (UniProt Q5T2D3)
Sequence (Q5T2D3 whole entry, looked up, the tested form may be a part): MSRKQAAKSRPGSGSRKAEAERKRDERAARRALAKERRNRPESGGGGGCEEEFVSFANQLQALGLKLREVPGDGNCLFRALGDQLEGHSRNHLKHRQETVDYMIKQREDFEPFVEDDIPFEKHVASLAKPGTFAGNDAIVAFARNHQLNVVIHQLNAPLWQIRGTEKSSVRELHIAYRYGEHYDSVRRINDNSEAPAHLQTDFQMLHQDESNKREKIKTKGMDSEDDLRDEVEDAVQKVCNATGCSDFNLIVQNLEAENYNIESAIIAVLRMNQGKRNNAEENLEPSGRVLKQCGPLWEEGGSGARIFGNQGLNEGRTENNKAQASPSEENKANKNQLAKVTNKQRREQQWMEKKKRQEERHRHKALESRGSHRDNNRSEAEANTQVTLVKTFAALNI
experimental.protocol: Validation of screening hits, potency titration, in vitro enzymatic, OTU domain-containing protein 3 DUB inhibitors (AID 1645868)
stated.conditions: purified OTUD3, ubiquitin-rhodamine cleavage fluorescence, 2 h
Calls of active or inactive are those of the source.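 Rule for the calls: active = maximal percent inhibition of the deubiquitinase OTUD3 of at least 30% across the tested doses; inactive = the rest.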
Outcome codes: 1 for active, 0 for inactive

- chemical.smiles: "O=c1[nH]c2ccccc2cc1CN(Cc1ccco1)S(=O)(=O)c1ccc(F)cc1"
  assayed.system: "OTU domain-containing protein 3 (Homo sapiens) (UniProt Q5T2D3)"
  category.label: 0
- chemical.smiles: "COc1ccc(OC)c(NC(=O)CNC(=O)c2cc3c(OC)cccc3[nH]2)c1"
  assayed.system: "OTU domain-containing protein 3 (Homo sapiens) (UniProt Q5T2D3)"
  category.label: 0
- chemical.smiles: "O=c1c2c(ccn1Cc1cc(F)ccc1F)ccn2Cc1cccnc1"
  assayed.system: "OTU domain-containing protein 3 (Homo sapiens) (UniProt Q5T2D3)"
  category.label: 0
- chemical.smiles: "O=c1[nH]c(C2CCN(S(=O)(=O)c3ccc(S(=O)(=O)NC4CCCCC4)cc3)CC2)nc2c1nnn2Cc1c(F)cccc1Cl"
  assayed.system: "OTU domain-containing protein 3 (Homo sapiens) (UniProt Q5T2D3)"
  category.label: 1

====

assayed.system: OTU domain-containing protein 3 (Homo sapiens)
experimental.protocol: Validation of screening hits, potency titration, in vitro enzymatic, OTU domain-containing protein 3 DUB inhibitors (AID 1645868)
stated.conditions: purified OTUD3, ubiquitin-rhodamine cleavage fluorescence, 2 h
The source made the active and inactive calls.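 How the source made its calls: active means maximal percent inhibition of the deubiquitinase OTUD3 of at least 30% across the tested doses; inactive means the rest.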
Labels: active, inactive

- compound: "CCn1cc(-c2cc(C(=O)Nc3cnn(Cc4cccc(F)c4)c3)c3ccccc3n2)cn1"
  assayed.system: "OTU domain-containing protein 3 (Homo sapiens)"
  category.label: "inactive"
- compound: "Cn1c(COc2ccccc2)nnc1SCC(=O)Nc1ccc(N2CCOCC2)cc1"
  assayed.system: "OTU domain-containing protein 3 (Homo sapiens)"
  category.label: "active"
- compound: "O=C(OC1CSc2nc3ccccc3n2C1)c1ccc([N+](=O)[O-])o1 (stereo not drawn)"
  assayed.system: "OTU domain-containing protein 3 (Homo sapiens)"
  category.label: "active"
- compound: "CCN(CC)C(=O)c1sc(NC(=O)/C=C/c2c(F)cccc2Cl)c(C#N)c1C"
  assayed.system: "OTU domain-containing protein 3 (Homo sapiens)"
  category.label: "inactive"
- compound: "CC1CCN(C(=O)c2cn(-c3cc(N4CCC(C)CC4)ncn3)cn2)CC1"
  assayed.system: "OTU domain-containing protein 3 (Homo sapiens)"
  category.label: "inactive"
- compound: "CC(C)Oc1ccc(C(=O)Nc2cccc(S(=O)(=O)N3CCCC3)c2)cc1"
  assayed.system: "OTU domain-containing protein 3 (Homo sapiens)"
  category.label: "inactive"
- compound: "Cc1cc(C)cc(N(CCC(=O)Nc2ccc(N3CCOCC3)cc2)S(=O)(=O)c2ccc(Cl)cc2)c1"
  assayed.system: "OTU domain-containing protein 3 (Homo sapiens)"
  category.label: "active"
- compound: "CCOC(=O)c1ccc(NC(=O)COc2cccc3c2CCN(CC)C3=O)cc1"
  assayed.system: "OTU domain-containing protein 3 (Homo sapiens)"
  category.label: "inactive"
- compound: "CC1CS(=O)(=O)N(c2ccc(C(=O)Nc3ccc4c(c3)OCCO4)cc2)C1=O (stereo not drawn)"
  assayed.system: "OTU domain-containing protein 3 (Homo sapiens)"
  category.label: "active"
- compound: "COc1cc(OC)c2c(c1)C(=O)C1=C(COC(C)(O)C1)C2=O (stereo not drawn)"
  assayed.system: "OTU domain-containing protein 3 (Homo sapiens)"
  category.label: "inactive"
- compound: "O=C(O)c1ccc(C2Cc3c([nH]c(=O)[nH]c3=O)O2)cc1 (stereo not drawn)"
  assayed.system: "OTU domain-containing protein 3 (Homo sapiens)"
  category.label: "active"
- compound: "C/C1=C\\CCC(C)C(O)CC(O)C(C)C(O)CCC(C)C(O)CC2(O)OC(CC(OC(=O)CC(=O)O)CC(O)CC(O)CC(O)C(C)C(O)/C=C/C(C)C(C(C)CCCCCCCCN=C(N)N)OC1=O)CC(O)C2O (stereo not drawn)"
  assayed.system: "OTU domain-containing protein 3 (Homo sapiens)"
  category.label: "inactive"
- compound: "Cc1nc2ccccc2nc1SCC(=O)Nc1ccc2c(c1)OCO2"
  assayed.system: "OTU domain-containing protein 3 (Homo sapiens)"
  category.label: "inactive"
- compound: "Cc1nc2cc(NC(=O)C3CN(C(=O)c4cnccn4)C3)ccc2s1"
  assayed.system: "OTU domain-containing protein 3 (Homo sapiens)"
  category.label: "inactive"
- compound: "O=C(COC(=O)c1n[nH]c2ccccc12)Nc1ccc(N2CCCCC2)cc1"
  assayed.system: "OTU domain-containing protein 3 (Homo sapiens)"
  category.label: "active"
- compound: "Fc1ccc(-c2noc(-c3nnc(NCc4cccnc4)c4ccccc34)n2)cc1"
  assayed.system: "OTU domain-containing protein 3 (Homo sapiens)"
  category.label: "inactive"
- compound: "Cc1ccc2c(Nc3ccc(CC(=O)O)cc3)c(C(=O)N3CCCC3)cnc2n1"
  assayed.system: "OTU domain-containing protein 3 (Homo sapiens)"
  category.label: "inactive"
- compound: "Cc1cc(N2CCN(c3ncccn3)CC2)nc2ccc(NC(=O)c3ccncc3)cc12"
  assayed.system: "OTU domain-containing protein 3 (Homo sapiens)"
  category.label: "active"
- compound: "CCCc1nc2sc3c(NC4CCCCC4)ncnc3c2c2c1CCC2"
  assayed.system: "OTU domain-containing protein 3 (Homo sapiens)"
  category.label: "inactive"
- compound: "Cc1cc2c(cc1C)NC(CC(=O)Nc1ccc(O)cc1)C(=O)N2 (stereo not drawn)"
  assayed.system: "OTU domain-containing protein 3 (Homo sapiens)"
  category.label: "active"
- compound: "CCOc1ccc(CCNC(=O)CCC(=O)Nc2ccc3nc(N4CCN(C)CC4)cc(C)c3c2)cc1OCC"
  assayed.system: "OTU domain-containing protein 3 (Homo sapiens)"
  category.label: "inactive"
- compound: "O=c1ccc(-c2noc(Cc3cccc(Cl)c3)n2)c[nH]1"
  assayed.system: "OTU domain-containing protein 3 (Homo sapiens)"
  category.label: "inactive"
- compound: "Cc1c(OCC(=O)NCC(=O)N2CCC3(O)CCCCC3C2)ccc2c3c(c(=O)oc12)CCCC3 (stereo not drawn)"
  assayed.system: "OTU domain-containing protein 3 (Homo sapiens)"
  category.label: "inactive"
- compound: "CC(C)C1Cc2c(sc3nc(SCC(=O)Nc4cccc5ccccc45)nc(N)c23)CO1 (stereo not drawn)"
  assayed.system: "OTU domain-containing protein 3 (Homo sapiens)"
  category.label: "inactive"
- compound: "COc1ccccc1N1CCN(C(=O)c2ccc3c(c2)N(Cc2cc(C)ccc2C)C(=O)c2ccccc2S3=O)CC1 (stereo not drawn)"
  assayed.system: "OTU domain-containing protein 3 (Homo sapiens)"
  category.label: "inactive"
- compound: "CCN1CCCC1CN(Cc1cc2cc(OC)ccc2[nH]c1=O)C(=O)NCc1ccccc1 (stereo not drawn)"
  assayed.system: "OTU domain-containing protein 3 (Homo sapiens)"
  category.label: "inactive"
- compound: "CC(=O)c1ccc(NC(=O)/C(=C/c2ccco2)n2nnnc2-c2ccccc2)cc1"
  assayed.system: "OTU domain-containing protein 3 (Homo sapiens)"
  category.label: "inactive"
- compound: "Cc1nc(-c2ccc3c(c2)nnn3CCN2CCOCC2)no1"
  assayed.system: "OTU domain-containing protein 3 (Homo sapiens)"
  category.label: "inactive"
- compound: "O=C(Nc1ccccc1)c1cn(-c2cc(N3CCCC3)ncn2)cn1"
  assayed.system: "OTU domain-containing protein 3 (Homo sapiens)"
  category.label: "inactive"
- compound: "O=C(CC(C(=O)Nc1ccc2c(c1)OCO2)C(=O)c1ccccc1)Nc1ccc(Cl)cc1F (stereo not drawn)"
  assayed.system: "OTU domain-containing protein 3 (Homo sapiens)"
  category.label: "active"
- compound: "O=C(NC1CCS(=O)(=O)C1)c1ccc(N2CCC(Cc3ccccc3)CC2)nn1 (stereo not drawn)"
  assayed.system: "OTU domain-containing protein 3 (Homo sapiens)"
  category.label: "inactive"
- compound: "CC(C)Cc1cc(-c2nnc3sc(-c4ccco4)nn23)n[nH]1"
  assayed.system: "OTU domain-containing protein 3 (Homo sapiens)"
  category.label: "inactive"
- compound: "NC(=O)c1nc(-c2cccc(F)c2)nc2c1[nH]c(=O)n2C1CCCCC1"
  assayed.system: "OTU domain-containing protein 3 (Homo sapiens)"
  category.label: "inactive"
